Reference source for all entries: patent US4382939A

# (Minutes Protection) per record follows
test system: collapse on exposure to an aerosol of methacholine; experiment: Anticholinergic test: prolongation of collapse time in conscious guinea pigs exposed to an aerosol of methacholine; assay type: in vivo; details: guinea pig, 25 mg/kg intraperitoneally; 10 minutes methacholine aerosol; Control 1.9 to 2.0
Structures can show the parent of a compound that is named as a salt.
Answer format: numeric, min implied, no suffix.

CCN(CC)C(C)CN1CCc2c(c(=O)oc3ccccc23)C1 (stereo not drawn) [H H H Et Et]: 10.0
CCNC(C)CN1CCc2c(c(=O)oc3ccccc23)C1 (stereo not drawn) [H H H Et H]: 10.0
CCCN(C)C(C)CN1CCc2c(c(=O)oc3cc(OC)ccc23)C1 (stereo not drawn) [H MeO H Me n-Pr]: 10.0
CNC(C)CN1CCc2c(c(=O)oc3cc(C)ccc23)C1 (stereo not drawn) [H Me H Me H]: 2.1
CCN(CC)C(C)CN1CCc2c(c(=O)oc3cc(C)ccc23)C1 (stereo not drawn) [H Me H Et Et]: 6.6

Query: (Minutes Protection); subject: CCN(CC)C(C)CN1CCc2c(c(=O)oc3cc(OC)ccc23)C1 (stereo not drawn) [H MeO H Et Et]
10.0

Query: (Minutes Protection); subject: CCCN(C)C(C)CN1CCc2c(c(=O)oc3cc(OC)c(OC)cc23)C1 (stereo not drawn) [MeO MeO H Me n-Pr]
2.5

Query: (Minutes Protection); subject: CCOc1cc2oc(=O)c3c(c2cc1OCC)CCN(CC(C)N(CC)CC)C3.Cl.Cl (stereo not drawn) [EtO EtO H Et Et]
10.0

Query: (Minutes Protection); subject: CC(CN1CCc2c(c(=O)oc3ccccc23)C1)N(C)C (stereo not drawn) [H H H Me Me]
10.0

Query: (Minutes Protection); subject: CC(CN1CCc2c(c(=O)oc3cc4c(cc23)OCO4)C1)N(C)C (stereo not drawn) [OCH2O H Me Me, dihydrochloride]
2.3

Query: (Minutes Protection); subject: CCNC(C)CN1CCc2c(c(=O)oc3cc(C)c(Cl)cc23)C1 (stereo not drawn) [Cl Me H Et H]
3.1

Query: (Minutes Protection); subject: Cc1ccc2c3c(c(=O)oc2c1)CN(CC(C)N(C)C)CC3 (stereo not drawn) [H Me H Me Me]
10.0

Query: (Minutes Protection); subject: CCN(C)C(C)CN1CCc2c(c(=O)oc3cc(OC)ccc23)C1 (stereo not drawn) [H MeO H Me Et]
9.1

Query: (Minutes Protection); subject: CCNC(C)CN1CCc2c(c(=O)oc3c(OC)c(OC)ccc23)C1 (stereo not drawn) [H MeO MeO Et H]
9.1

Query: (Minutes Protection); subject: COc1ccc2c3c(c(=O)oc2c1)CN(CC(C)N(C)C)CC3.Cl.Cl (stereo not drawn) [H MeO H Me Me]
10.0

====

tested on: collapse on exposure to an aerosol of methacholine; assay: Anticholinergic test: prolongation of collapse time in conscious guinea pigs exposed to an aerosol of methacholine; format: in vivo; settings: guinea pig, 25 mg/kg intraperitoneally; 10 minutes methacholine aerosol; Control 1.9 to 2.0
propertyName: (Minutes Protection)

Query: (Minutes Protection); subject: CCCN(CC)C(C)CN1CCc2c(c(=O)oc3cc(C)ccc23)C1 (stereo not drawn)
7.6 min

Query: (Minutes Protection); subject: CCOc1cc2oc(=O)c3c(c2cc1OCC)CCN(CC(C)N(C)C)C3.Cl.Cl (stereo not drawn)
7.3 min

Query: (Minutes Protection); subject: CCN(CC(C)C)C(C)CN1CCc2c(c(=O)oc3cc(OC)c(OC)cc23)C1 (stereo not drawn)
5.4 min

====

Test system: bronchospasm (pilocarpine nitrate)
Assay: Inhibition of pilocarpine-induced bronchospasm in anesthetized dogs (pulmonary mechanics)
Assay type: in vivo, mongrel dogs
Details: dogs, i.v.; >1 indicates more potent as a bronchodilator than as an antisecretory agent
Description: In an additional testing procedure, mongrel dogs of either sex, 10.6 to 15.3 kg, are anesthetized with sodium pentobarbital, 30 mg/kg i.v. and then prepared for the monitoring of pulmonary mechanics. A Buxco pulmonary mechanics computer is used to calculate pulmonary resistance, dynamic compliance, and tidal volume from transpulmonary pressure and flow data. Respiratory rate, heart rate and mean arterial blood pressure are also monitored. The femoral vein is cannulated for the delivery of drugs. […]
propertyName: Pulmonary Selectivity*

Study these solved cases before continuing.
CC(CN1CCc2c(c(=O)oc3ccccc23)C1)N(C)C (stereo not shown): 22
CCNC(C)CN1CCc2c(c(=O)oc3ccccc23)C1 (stereo not shown): 6
CCN(C)C(C)CN1CCc2c(c(=O)oc3cc(C)ccc23)C1 (stereo not shown): 2.2

Switching to the query record.
Query: Pulmonary Selectivity*; subject: CCOc1cc2oc(=O)c3c(c2cc1OCC)CCN(CC(C)N(C)C)C3.Cl.Cl (stereo not shown)
2.1

====

test system: bronchospasm (pilocarpine nitrate); assay: Inhibition of pilocarpine-induced bronchospasm in anesthetized dogs (pulmonary mechanics); assay type: in vivo, mongrel dogs; settings: dogs, i.v.; >1 indicates more potent as a bronchodilator than as an antisecretory agent
propertyName: Pulmonary Selectivity*

Study these solved cases before continuing.
Cc1ccc2c3c(c(=O)oc2c1)CN(CC(C)N(C)C)CC3 (centres unmarked) [H Me H Me Me]: 3.7
CCN(CC)C(C)CN1CCc2c(c(=O)oc3cc(OC)c(OC)cc23)C1.Cl.Cl (centres unmarked) [MeO MeO H Et Et]: 3.5
COc1cc2oc(=O)c3c(c2cc1OC)CCN(CC(C)N(C)C)C3.Cl.Cl (centres unmarked) [MeO MeO H Me Me]: 4.5
CCN(CC)C(C)CN1CCc2c(c(=O)oc3ccccc23)C1 (centres unmarked) [H H H Et Et]: 7

Switching to the query record.
Query: Pulmonary Selectivity*; subject: CCN(CC)C(C)CN1CCc2c(c(=O)oc3cc(C)ccc23)C1 (centres unmarked) [H Me H Et Et]
4.6

====

tested on: collapse on exposure to an aerosol of methacholine; experiment: Anticholinergic test: prolongation of collapse time in conscious guinea pigs exposed to an aerosol of methacholine; type: in vivo; conditions: guinea pig, 25 mg/kg intraperitoneally; 10 minutes methacholine aerosol; Control 1.9 to 2.0
# (Minutes Protection) per record follows
Answer format: numeric, min implied, no suffix.

Study these solved cases before continuing.
Cc1cc2oc(=O)c3c(c2cc1C)CCN(CC(C)N(C)C)C3 (stereo not drawn): 4.8
CCCN(CC)C(C)CN1CCc2c(c(=O)oc3ccccc23)C1 (stereo not drawn): 6.4
CNC(C)CN1CCc2c(c(=O)oc3cc(C)c(NC(C)=O)cc23)C1 (stereo not drawn): 10.0

Query: (Minutes Protection); subject: CCN(C)C(C)CN1CCc2c(c(=O)oc3c(OC)c(OC)ccc23)C1.Cl.Cl (stereo not drawn)
5.0

Query: (Minutes Protection); subject: CCCCN(CC)C(C)CN1CCc2c(c(=O)oc3cc(OC)c(OC)cc23)C1 (stereo not drawn)
3.7

Query: (Minutes Protection); subject: CCN(CC)C(C)CN1CCc2c(c(=O)oc3cc(OC)c(OC)cc23)C1.Cl.Cl (stereo not drawn)
7.8

Query: (Minutes Protection); subject: CCN(C)C(C)CN1CCc2c(c(=O)oc3cc(OC)c(OC)cc23)C1.Cl.Cl (stereo not drawn)
6.0

Query: (Minutes Protection); subject: CC(CN1CCc2c(c(=O)oc3c2ccc2ccccc23)C1)N(C)C (stereo not drawn)
5.9

Query: (Minutes Protection); subject: CCCCN(C)C(C)CN1CCc2c(c(=O)oc3cc(C)ccc23)C1 (stereo not drawn)
7.8

Query: (Minutes Protection); subject: CCCN(C)C(C)CN1CCc2c(c(=O)oc3cc(C)ccc23)C1 (stereo not drawn)
5.4

Query: (Minutes Protection); subject: CCNC(C)CN1CCc2c(c(=O)oc3cc(OC)ccc23)C1 (stereo not drawn)
7.5

Query: (Minutes Protection); subject: CCN(C)C(C)CN1CCc2c(c(=O)oc3cc(C)ccc23)C1 (stereo not drawn)
8.8

Query: (Minutes Protection); subject: CCN(CC)C(C)CN1CCc2c(c(=O)oc3c(OC)c(OC)ccc23)C1 (stereo not drawn)
7.6

Query: (Minutes Protection); subject: CCCN(CC)C(C)CN1CCc2c(c(=O)oc3cc(OC)ccc23)C1 (stereo not drawn)
10.0

====

tested on: collapse on exposure to an aerosol of methacholine; assay: Anticholinergic test: prolongation of collapse time in conscious guinea pigs exposed to an aerosol of methacholine; assay type: in vivo; settings: guinea pig, 25 mg/kg intraperitoneally; 10 minutes methacholine aerosol; Control 1.9 to 2.0
propertyName: (Minutes Protection) (min)
Answer format: numeric, min implied, no suffix.

Study these solved cases before continuing.
CCCCN(C)C(C)CN1CCc2c(c(=O)oc3cc(OC)ccc23)C1 (stereo not shown): 8.6
CCNC(C)CN1CCc2c(c(=O)oc3cc(C)ccc23)C1 (stereo not shown): 10.0

# query: (Minutes Protection) | item CCCN(CC)C(C)CN1CCc2c(c(=O)oc3cc(OC)c(OC)cc23)C1 (stereo not shown) | system: collapse on exposure to an aerosol of methacholine
3.7

# query: (Minutes Protection) | item COc1ccc2c3c(c(=O)oc2c1OC)CN(CC(C)N(C)C)CC3.Cl.Cl (stereo not shown) | system: collapse on exposure to an aerosol of methacholine
5.5

# query: (Minutes Protection) | item COc1cc2oc(=O)c3c(c2cc1OC)CCN(CC(C)N(C)C)C3.Cl.Cl (stereo not shown) | system: collapse on exposure to an aerosol of methacholine
5.2

# query: (Minutes Protection) | item CNC(C)CN1CCc2c(c(=O)oc3cc(OC)ccc23)C1 (stereo not shown) | system: collapse on exposure to an aerosol of methacholine
8.6

# query: (Minutes Protection) | item CCN(CC)C(C)CN1CCc2c(c(=O)oc3cc(C)c(Cl)cc23)C1 (stereo not shown) | system: collapse on exposure to an aerosol of methacholine
3.4
